Reference for the values: patent US8134015B2

Biological target: rat NaPi-2b (Rattus norvegicus, UniProt Q9JJ09)
Assay: Sodium-dependent phosphate uptake of Xenopus oocytes which expressed NaPi-2b (32P)
Details: Xenopus oocytes expressing rat NaPi-2b, 32P radioactive phosphorus; read-out: IC50 (phosphate uptake inhibitory activity)
Procedure: Pharmacological Test Example 1 Experiment of Sodium-Dependent Phosphate Uptake of Xenopus oocytes which Expressed NaPi-2b Degenerate primers were prepared from sequences of mouse NaPi-2b disclosed in Hilfiker H. et al., Pro Natl Acad Sci USA, 95 (24): 14564-14569, […] and sequences of human and rat NaPi-2a disclosed in Magagnin S. et al., Proc Natl Aca Sci USA, 90 (13): 5979-5983, 1993. RNA was extracted from the rat small intestine using ISOGEN; manufactured by NIPPON GENE CO., LTD (Japan). […]
pIC50: −log10 of the molar value.
measurement-label: pIC50

Worked examples follow.
>>> measured_number("Cc1csc(NC(=O)c2cccc(CSc3nc[nH]n3)c2)c1C(=O)N/N=C/c1cccc(F)c1")
5.84
>>> measured_number("COc1cc(OC)cc(C(=O)Nc2ccccc2C(=O)N/N=C/c2ccc(F)cc2)c1")
6.05
>>> measured_number("Cc1cccc(/C=N/NC(=O)c2cc(Br)ccc2NC(=O)c2cccnc2)c1")
4.90

P = CCN(CC)CCN(CCN(CC)CC)Cc1cccc(C(=O)Nc2ccc(N3CCCCC3)cc2C(=O)N/N=C/c2cccc(F)c2)c1
Q = CC(O)CN(Cc1cccc(C(=O)Nc2sccc2C(=O)N/N=C/c2ccc(F)cc2)c1)CC(C)O (centres unmarked)
Asked: Smaller pIC50 value? Options are P and Q Refer to your chosen entry by its label in the reply.
Given back: Q
(Q: 4.51, P: 4.88)

---

Biological target: rat NaPi-2b (Rattus norvegicus)
Assay: Sodium-dependent phosphate uptake of Xenopus oocytes which expressed NaPi-2b (32P)
Settings: Xenopus oocytes expressing rat NaPi-2b, 32P radioactive phosphorus; read-out: IC50 (phosphate uptake inhibitory activity)
measurement-label: IC50 (µM)

Worked examples follow.
>>> measured_number("CC(O)CN(Cc1cccc(C(=O)Nc2ccc(OCC(O)CN3CCCCC3)cc2C(=O)N/N=C/c2ccc(Cl)c(C(F)(F)F)c2)c1)CC(C)O (stereo not drawn) [Compound 950]")
9.08
>>> measured_number("O=C(Nc1ccc(N2CCOCC2)cc1C(=O)N/N=C/c1ccc(Cl)c(C(F)(F)F)c1)c1cccc(CSCCO)c1 [Compound 1065]")
1.21
>>> measured_number("COc1ccc(C(=O)Nc2ccc(Br)cc2C(=O)N/N=C/c2ccccc2Br)cc1OC [Compound 14]")
12.1
>>> measured_number("CC(O)CN(Cc1cccc(C(=O)Nc2sc3c(c2C(=O)N/N=C/c2cccc(F)c2)CCC3)c1)CC(C)O (stereo not drawn) [Compound 806]")
3.9
>>> measured_number("Cc1ccc(/C=N/NC(=O)c2cc(Br)ccc2NC(=O)c2cccnc2)cc1C [Compound 176]")
4.1
>>> measured_number("COc1ccc(/C=N/NC(=O)c2c(NC(=O)c3cccc(CN4CCC(CO)CC4)c3)sc3c2CCCC3)cc1 [Compound 644]")
5.91
>>> measured_number("Cc1ccc(/C=N/NC(=O)c2cc(Cl)ccc2NC(=O)c2cccc(CN(CCO)CCO)c2)cc1 [Compound 405]")
1.9
>>> measured_number("O=C(Nc1ccc(Br)cc1C(=O)N/N=C/c1ccc(F)cc1)c1ccc(CN2CCN(CCO)CC2)cc1 [Compound 319]")
9.76

I = Cc1csc(NC(=O)c2cccc(CSc3nc[nH]n3)c2)c1C(=O)N/N=C/c1ccc(F)cc1 [Compound 553]
II = O=C(O)CSCc1cccc(C(=O)Nc2ccc(N3CCCCC3)cc2C(=O)N/N=C/c2ccc(Cl)c(C(F)(F)F)c2)c1 [Compound 891]
III = Cc1ccc(/C=N/NC(=O)c2cc(Cl)ccc2NC(=O)c2cccc(CSCCS(=O)(=O)O)c2)cc1C [Compound 694]
Asked: Put these in order: smallest IC50 first, largest last. Returns: the labels listed in the requested order.
Given back: II, I, III
(II: 1.47 µM, I: 2.8 µM, III: 38.8 µM)

a = O=C(Nc1ccc(Br)cc1C(=O)N/N=C/c1cccc(F)c1)c1ccc(CSc2ccncc2)cc1 [Compound 255]
b = CC(O)CN(Cc1cccc(C(=O)Nc2sccc2C(=O)N/N=C/c2cccc(F)c2)c1)CC(C)O (stereo not drawn) [Compound 673]
Asked: Between a and b , whose measured IC50 reads higher? Refer to your chosen entry by its label in the reply.
Given back: b

A = CCN(CC)CCN(C)Cc1cccc(C(=O)Nc2ccc(N3CCCC3)cc2C(=O)N/N=C/c2ccc(C)c(C)c2)c1 [Compound 916]
B = CCN(CC)CCN(C)Cc1cccc(C(=O)Nc2ccc(OC)cc2C(=O)N/N=C/c2ccc(Cl)c(C(F)(F)F)c2)c1 [Compound 1023]
C = Cc1ccc(/C=N/NC(=O)c2cc(Br)ccc2NC(=O)c2ccc(CN3CCC(CO)CC3)cc2)cc1 [Compound 333]
D = O=C(Nc1sc2ccccc2c1C(=O)N/N=C/c1ccc(F)cc1)c1cccc(CN2CCC(CO)CC2)c1 [Compound 800]
E = CCN(CC)CCN(C)Cc1cccc(C(=O)Nc2c(C)csc2C(=O)N/N=C/c2ccc(C)cc2)c1 [Compound 343]
Asked: Sort by IC50, descending. Returns: the labels listed in the requested order.
Given back: E, C, D, A, B

1 = O=C(Nc1ccccc1C(=O)N/N=C/c1ccc(F)cc1)c1ccncc1 [Compound 135]
2 = Cc1ccc(/C=N/NC(=O)c2ccccc2NC(=O)c2cccc(F)c2)cc1C [Compound 95]
3 = COc1ccc(C(=O)Nc2cc(OC)c(OC)cc2C(=O)N/N=C/c2ccccc2)cc1OC [Compound 227]
4 = CCN(CC)CCN(C)Cc1cccc(C(=O)Nc2sc3c(c2C(=O)N/N=C/c2ccc(F)cc2)CCCC3)c1 [Compound 611]
Asked: Sort by IC50, descending. Returns: the labels listed in the requested order.
Given back: 3, 1, 4, 2
(3: 7.4 µM, 1: 3.74 µM, 4: 2.16 µM, 2: 1.27 µM)

---

Biological target: human NaPi-2a (Homo sapiens)
Sequence (Q06495 whole entry): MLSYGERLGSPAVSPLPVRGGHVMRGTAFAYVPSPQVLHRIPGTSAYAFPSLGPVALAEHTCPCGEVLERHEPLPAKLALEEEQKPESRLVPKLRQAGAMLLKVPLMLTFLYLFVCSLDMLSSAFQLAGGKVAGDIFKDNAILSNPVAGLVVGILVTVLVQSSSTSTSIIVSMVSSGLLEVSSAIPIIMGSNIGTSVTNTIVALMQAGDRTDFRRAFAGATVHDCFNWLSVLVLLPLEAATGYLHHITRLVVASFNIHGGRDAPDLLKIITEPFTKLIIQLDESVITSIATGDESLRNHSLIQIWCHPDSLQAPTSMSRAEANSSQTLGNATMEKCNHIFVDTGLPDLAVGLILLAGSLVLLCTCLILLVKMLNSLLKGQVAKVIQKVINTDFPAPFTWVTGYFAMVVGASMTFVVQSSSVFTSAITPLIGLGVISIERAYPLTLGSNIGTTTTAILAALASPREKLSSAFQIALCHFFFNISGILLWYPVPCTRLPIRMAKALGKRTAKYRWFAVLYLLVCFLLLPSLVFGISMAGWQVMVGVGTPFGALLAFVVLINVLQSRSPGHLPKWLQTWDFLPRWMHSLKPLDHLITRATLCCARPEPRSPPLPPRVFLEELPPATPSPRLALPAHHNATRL
Experiment: Sodium-dependent phosphate uptake of Xenopus oocytes which expressed NaPi-2a (32P)
Conditions: phosphate uptake, Xenopus oocytes expressing human NaPi-2a; five concentration levels
measurement-label: IC50 (µM)

>>> measured_number("Cc1csc(NC(=O)c2cccc(CN3CCC4(CC3)OCCO4)c2)c1C(=O)N/N=C/c1ccc(Cl)c(C(F)(F)F)c1 [Compound 836]")
10.2

P = CCN(CC)CCN(CCN(CC)CC)Cc1cccc(C(=O)Nc2scc(C)c2C(=O)N/N=C/c2ccc(F)cc2)c1 [Compound 840]
Q = CC(O)CN(Cc1cccc(C(=O)Nc2sc3ccccc3c2C(=O)N/N=C/c2ccc(F)cc2)c1)CC(C)O (stereo not shown) [Compound 794]
R = Cc1csc(NC(=O)c2cccc(CN(CC(C)O)CC(C)O)c2)c1C(=O)N/N=C/c1ccc(Cl)c(C(F)(F)F)c1 (stereo not shown) [Compound 591]
Asked: Put these in order: smallest IC50 first, largest last. Returns: the labels listed in the requested order.
Given back: R, Q, P

---

Target: rat NaPi-2b (Rattus norvegicus, UniProt Q9JJ09)
Sequence (Q9JJ09 1-695): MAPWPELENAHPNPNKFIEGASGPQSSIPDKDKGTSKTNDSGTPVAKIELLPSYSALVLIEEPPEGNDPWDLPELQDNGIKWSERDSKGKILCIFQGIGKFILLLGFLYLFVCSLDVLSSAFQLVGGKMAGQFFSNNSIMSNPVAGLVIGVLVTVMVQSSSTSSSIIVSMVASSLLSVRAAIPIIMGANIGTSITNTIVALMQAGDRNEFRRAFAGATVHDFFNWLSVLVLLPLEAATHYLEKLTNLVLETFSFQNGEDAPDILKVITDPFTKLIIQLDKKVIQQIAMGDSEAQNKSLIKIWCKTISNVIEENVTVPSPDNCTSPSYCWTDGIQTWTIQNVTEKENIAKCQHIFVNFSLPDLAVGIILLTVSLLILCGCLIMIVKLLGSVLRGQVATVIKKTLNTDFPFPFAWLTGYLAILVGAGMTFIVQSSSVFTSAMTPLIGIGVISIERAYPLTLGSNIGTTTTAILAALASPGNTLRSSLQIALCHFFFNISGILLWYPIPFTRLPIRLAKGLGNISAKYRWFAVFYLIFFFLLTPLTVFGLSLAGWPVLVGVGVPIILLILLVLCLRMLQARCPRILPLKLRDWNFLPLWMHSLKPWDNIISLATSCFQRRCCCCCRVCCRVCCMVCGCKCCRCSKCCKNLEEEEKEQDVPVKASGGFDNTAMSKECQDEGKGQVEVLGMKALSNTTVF
Test: Sodium-dependent phosphate uptake of Xenopus oocytes which expressed NaPi-2b (32P)
Settings: Xenopus oocytes expressing rat NaPi-2b, 32P radioactive phosphorus; read-out: IC50 (phosphate uptake inhibitory activity)
measurement-label: IC50 (µM)

P = CCN(CC)CCN(C)Cc1cccc(C(=O)Nc2ccc(N3CCCCC3)cc2C(=O)N/N=C/c2ccc(C)c(C)c2)c1
Q = CCN(CC)CCN(C)Cc1cccc(C(=O)Nc2scc(C)c2C(=O)N/N=C/c2cccc(F)c2)c1
Asked: Between P and Q , whose measured IC50 reads higher? Refer to your chosen entry by its label in the reply.
Given back: Q
(Q: 14.6 µM, P: 0.46 µM)
